experiment: yeast display, Sf9 membrane polyspecificity reagent, FACS + sequencing; frameworks hold sequencing errors
readout: polyreactivity (PSR sort gate)

QVQLVESGGGLVQAGGSLRLSCAASGSIFYFNPMGWYRPAPGKERELVAAISWSGRTYYADSVKGRFTISRDNAKKTVYLQMNSLKPEDTAVYYCNAAYHYYGKYDYWGQGTQVTVSS :: high polyreactivity
QVQLVESGGGLVQAGGSLRLSCAASGFTFRNNAMGWYRQAPGKERELVAAISYSGGSTYYADSVKGRFTISRDNAKNTVYLQMNSLKPEDTAVYYCNPRRWSYLEYDYWGQGTQVTVSS :: low polyreactivity
QVQLVESGGGLVQARGSLRLSCAAYGLTLRGYAMGWYRQAPGKERELVAAISGSGTSTYYADSVKWRFTISRDNAKNTVYLQMNSLKPEDTAVYYCAAVKVRKGLEMGYWGQGTQVTVSS :: high polyreactivity
QVQLVESGGGLDQAAGSLRLSCAASGSIFDAYMRWYIQAPGKERELVAGITRSGGSTYYADSVKGRFTISRDNAKIKVYLQMNSLKPEDTAVDFCAADYSSDGDYWGLGTQVTVSS :: low polyreactivity

I need polyreactivity (PSR sort gate) for every entry listed below, if you could help.
1. QVQLVESGGGLVQAGGSLRLSCAASGRTFWRNAMGWYRQAPGKERELVAAISRGGSTKYADSVKGRFTISRDNAKNTVYLQMNSLKPEDTAVYYCAAATPGRYGYWGQGTQVTVSS
2. QVQLVESGGGLVQAGGRLRLSCAPSGNIFRYYVMGWYRPAPGKEREFLAAITSSGGSTYYADSVKGRFTISRDNAKNTVYLKINSLKPEDTEVYYCAKDYWDPGWAEYDYWGQGTQVTVSS
3. QVKLVESAAGLVQPGGSHRLSCAASGRIFSYYAMGWSRQAPGKDRELVAAISRTGGTTYYADSVKGRFTSSRDNAKNTVYLQMNSLKPEDTAVYYCNAVKAPYLSYDYWGKGTQVTVSS
4. QVQLVESGVGLVQAGGSLRVSCAASGRTFRYYAMGWYREAPGKERELVAAISSGTRTNYADSVTGRFTISRDNAKNTVYLQMNSLKPEDTAVYYCNAVTRRSAQGGHDYWGQGTQVTVSS

high polyreactivity
low polyreactivity
high polyreactivity
high polyreactivity

* * *

test: yeast display, Sf9 membrane polyspecificity reagent, FACS + sequencing; frameworks hold sequencing errors
readout: polyreactivity (PSR sort gate)

The examples below pair each entry with its known result.
QVQLVGSGGGLVQAGGSLRLSCAASGRTFRAYAMGWYRQAPGKERELVAAIRSSGGSTYADSVKGRFTISRDNAKNTVYLQMNSLKPEDTAVYYFAKPIAPARNAYPAYDYWGQGTQVTVSS :: high polyreactivity
QVQLVESGGCLVQAGGSLRLSCPASGSTIGKYAMGWYRQAPRKERELFATITVSGGNTNYADSVKGRITISRDNAKITVYLQMNSLKPEDTAVYYCAARKYVAGHKYIMKYWGQGTQVTVSS :: low polyreactivity
QVQLVESGGGLVQAGGSLRLSCGASGRIFRGYAMGWYRQGPGKERELVAAISRRGGSTYYADSVKGRFTISRDNAKNTVYLQMNSLKPVDTAVYYCNADGVHYVAYAGGYWGQGTQVTVSS :: high polyreactivity
QVQLVESGGGLVQAGGSLRVSCAASGNIFYYYAKGWSRQAPGKERELDAAISKRGGSTYYADSVKGRFTISRDIAKNTVYLQMNSLKTEVTAVYYCAADGGYADYDYWGQGTQVTVSS :: high polyreactivity

// batch mode: one polyreactivity (PSR sort gate) value per listed entry
1. QVQLVESGGCLVQAGGSLRLSCAASGRNIAYNAMGWSRQAPGKERELVASISSGGSTFYADSVKGRFTISRDNAKNTVYLQMNSLKPEDTAVYYCAKGGYWGQGTQVSVSS
2. QVQLVESAGGLVQAGVRLRLSCAASGRTFVCNAMGSYRQAPGKERELVADITWSGDITYYADSVKGRFTISRDNAKNTVYLQMNSLKPEDTAVYYCAADYHRRLTDYDYWGQGTQVTVSS

1. high polyreactivity
2. low polyreactivity

Origin of the recorded values: the nanobody polyreactivity screen of Harvey et al. (2022)
